- System: Streptococcus faecalis
- Test protocol: agar plate system (Table II)
- Format: cell-based
- Conditions: Enterococcus faecalis, antibiotic medium 1, 72 hours at 30° C., read-out: Minimum Inhibitory Concentration
- Protocol: The antimicrobial activities of Compounds A, B, C, D, E and F were also determined in an agar plate system. The compounds were added to melted and cooled (50° C.) agar in twofold concentration increments from 50 mcg per ml of agar to 1.56 mcg per ml of agar. […]
Measured MIC values are reported for all entries that follow.

# Molecule, MIC
measured = [
    ("O=[N+]([O-])C(Br)(CO)CO", "12.5 µg/mL"),
    ("CCCC1OCC(Br)([N+](=O)[O-])CO1 (stereo not drawn)", "12.5 µg/mL"),
    ("CCC1OCC(Br)([N+](=O)[O-])CO1 (stereo not drawn)", "12.5 µg/mL"),
    ("CC(C)C1OCC(Br)([N+](=O)[O-])CO1 (stereo not drawn)", "25 µg/mL"),
    ("O=[N+]([O-])C1(Br)COCOC1 [Compound B, 5-bromo-5-nitro-1,3-dioxane, reference compound]", "12.5 µg/mL"),
    ("CC1OCC(Br)([N+](=O)[O-])CO1 (stereo not drawn)", "12.5 µg/mL"),
]

Entry source: patent US4025533A
